criterion met if melting point is below 200 °C. criterion not met if not; exact matches included in criterion not met.

Example cases with answers are listed next.
compound="CN1CCCC(C2=C(C#N)C(c3cccc4nonc34)c3c[nH]nc3N2)C1 (centres unmarked) [Example 1006]" category="criterion not met"
compound="N#CC1=C(c2ccc(Cl)s2)Nc2n[nH]cc2C1c1cccc2nonc12 (centres unmarked) [Example 298]" category="criterion not met"
compound="N#CC1=C(c2cccs2)Nc2n[nH]cc2C1c1cccc(Cl)c1Cl (centres unmarked) [Example 247]" category="criterion not met"
compound="N#CC1=C(C2CCCCC2)Nc2n[nH]cc2C1c1cccc(C#N)c1Br (centres unmarked) [Example 325]" category="criterion met"
compound="CC(C)(C)OC(=O)N1CC=C(C2=C(C#N)C(c3cccc4nonc34)c3c[nH]nc3N2)CC1 (centres unmarked) [Example 1012]" category="criterion not met"

I wonder whether N#CC1=C(c2ccccc2)Nc2n[nH]cc2C1c1cccc2c1OCCC2 (centres unmarked) [Example 148] has melting point below 200 °C. Can you tell?
criterion not met

* * *

measured endpoint: melting point

Field: example entries. Status: answers known.
compound="CCCC1=C(C(=O)OCC)C(c2cccc3c2OCCC3)c2c[nH]nc2N1 (single isomer, unassigned; (-)) [Example 188]" measured_endpoint="melting point" value="160 to 161 °C"
compound="N#CC1=C(C2CCNCC2)Nc2n[nH]cc2C1c1cccc(C#N)c1Br (stereo not shown)" measured_endpoint="melting point" value="> 270 °C"
compound="CCCC1=C(C(=O)OCC)C(c2cccc(C#N)c2Cl)c2c[nH]nc2N1 (stereo not shown)" measured_endpoint="melting point" value="213 to 215 °C"

Turning now to a further compound:
Identify the reported melting point for the following entry. CCOC(=O)C1=C(C(F)(F)F)Nc2n[nH]cc2C1c1cccs1 (stereo not shown)
157 to 161 °C

* * *

# melting point per record follows
Write it as a number; the unit °C goes unstated.

Check out these entries, answers already filled in.
molecule="N#CC1=C(C2CCCCC2)Nc2n[nH]cc2C1c1ccccc1Cl (stereo not shown)" value=163
molecule="CCCC1=C(C#N)C(c2ccccc2Br)c2c[nH]nc2N1 (stereo not shown)" value=237
molecule="CN1CC=C(C2=C(C#N)C(c3cccc(C#N)c3Br)c3c[nH]nc3N2)CC1 (stereo not shown)" value=233

Shifting focus to the molecule that follows.
Determine from records and report melting point for N#CC1=C(C2CNCCO2)Nc2n[nH]cc2C1c1cccc(C#N)c1Br.O=C(O)C(F)(F)F (stereo not shown)
236

* * *

measured endpoint: melting point

compound="Cl.N#CC1=C(C2CCNCC2)Nc2n[nH]cc2C1c1cccc(C#N)c1Br (stereo not shown)" measured_endpoint="melting point" value="> 270 °C"
compound="CCCC1=C(C#N)C(c2cccc(Br)c2)c2c[nH]nc2N1 (stereo not shown)" measured_endpoint="melting point" value="202 to 205 °C"
compound="CCC1=C(C#N)C(c2cccc(C#N)c2Cl)c2c[nH]nc2N1 (stereo not shown)" measured_endpoint="melting point" value="> 300 °C"

Now for a further compound.
Supply reported melting point belonging to this compound: CCCC1=C(C(=O)OCC)C(c2[nH]cnc2C)c2c[nH]nc2N1 (stereo not shown)
219 to 220 °C

* * *

measured endpoint: melting point

As a guide, the following entries are already answered.
compound="CCCC1=C(C(=O)OCC)C(c2cccc(Br)c2Br)c2c[nH]nc2N1 (stereo not shown)" value="180 to 183 °C (dec.)"
compound="CN1CCCN(CC2=C(C#N)C(c3ccccc3Cl)c3c[nH]nc3N2)CC1.Cl.Cl (stereo not shown)" value="204 to 206 °C (dec.)"
compound="CCCC1=C(C#N)C(c2cccc(C#N)c2Br)c2c[nH]nc2N1C (stereo not shown)" value="218 to 220 °C"

Shift focus to the following entry.
Entry CCCC1=C(C(=O)OCC)C(c2cccc(C#N)c2Br)c2c[nH]nc2N1 (stereo not shown) needs its melting point filled in; supply it.
210 to 212 °C (dec.)

* * *

measured endpoint: melting point

molecule="CCCC1=C(C(=O)OCC)C(c2ccccc2Cl)c2cnn(C(=O)OCC)c2N1 (stereo not drawn)" measured_endpoint="melting point" value="88 to 89 °C"
molecule="N#CC1=C(C2CCCN2)Nc2n[nH]cc2C1c1cccc(C#N)c1Br (stereo not drawn)" measured_endpoint="melting point" value="> 240 °C"

With those in mind, consider the next molecule.
Supply melting point value. Item: CC(C)C1=C(C#N)C(c2cccc3nocc23)c2c[nH]nc2N1 (stereo not drawn)
245 °C

* * *

measured endpoint: melting point

Consider the worked cases shown below.
molecule="CCCC1=C(C(=O)OCC)C(c2ccccc2C(F)(F)F)c2c[nH]nc2N1 (centres unmarked)" measured_endpoint="melting point" value="198 to 202 °C"
molecule="CCC1=C(C#N)C(c2ccccc2[N+](=O)[O-])c2c[nH]nc2N1 (centres unmarked)" measured_endpoint="melting point" value="228 to 230 °C (dec.)"
molecule="CCCC1=C(C(=O)OCC)C(c2cc3ccccc3o2)c2c[nH]nc2N1.O=C(O)/C=C\\C(=O)O (centres unmarked)" measured_endpoint="melting point" value="123 to 125 °C"

Fill in melting point for record CCCC1=C(C#N)C(c2cccc3nonc23)c2cn(C(=O)OC(C)(C)C)nc2N1 (centres unmarked)
168 to 170 °C

Report melting point for CCCC1=C(C(=O)OCC)C(c2c(F)cccc2Cl)c2c[nH]nc2N1 (centres unmarked)
180 to 183 °C

* * *

melting point for assorted compounds

compound="CCC1=C(C#N)C(c2cccc(C#N)c2Br)c2c[nH]nc2N1 (stereo not drawn)" value="> 300 °C"
compound="N#CC1=C(C2CCCN2)Nc2n[nH]cc2C1c1cccc2nonc12 (stereo not drawn)" value="> 240 °C"
compound="CCCC1=C(C#N)C(c2cccc(C#N)c2Cl)c2c[nH]nc2N1 (stereo not drawn)" value="> 250 °C"
compound="CCCC1=C(C(=O)OCC)C(c2cccc(C(F)(F)F)c2Cl)c2c[nH]nc2N1 (stereo not drawn)" value="236 to 238 °C"
compound="CCC1=C(C#N)C(c2cccc(Cl)c2Cl)c2c[nH]nc2N1 (stereo not drawn)" value="> 300 °C"

Next:
Indicate its recorded melting point; the compound in question is CCCC1=C(C#N)C(c2ccc(F)cc2Cl)c2c[nH]nc2N1 (stereo not drawn)
209 to 212 °C

* * *

Here the recorded melting point is given for each entry.

compound="CCOC(=O)C1=C(C(F)(F)F)Nc2n[nH]cc2C1c1cccc2ccccc12 (stereo not shown)" value="119 to 120 °C"
compound="CCCC1=C(C(=O)OCC)C(c2ccccc2)c2c[nH]nc2N1.O=C(O)/C=C\\C(=O)O (stereo not shown)" value="139 to 141 °C"
compound="CCOC(=O)C1=C(C(F)(F)F)Nc2n[nH]cc2C1c1ccc(C(=O)OCC)cc1 (stereo not shown)" value="157 to 160 °C"

Please examine the following record next.
Supply reported melting point belonging to this compound: CCOC(=O)C1=C(C)Nc2n[nH]cc2C1c1ccccc1Cl (stereo not shown)
217 to 221 °C

* * *

measured endpoint: melting point

Examples with answers:
compound="CCCC1=C(C(=O)OCC)C(c2ccsc2)c2c[nH]nc2N1.O=C(O)/C=C\\C(=O)O (centres unmarked)" value="141 to 143 °C"
compound="CCCC1=C(C(=O)OCC)C(c2ccccc2Cl)c2cnn(C(=O)C=Cc3ccccc3)c2N1 (centres unmarked)" value="131 to 134 °C"
compound="COc1ccccc1C1C(C#N)=C(C(C)C)Nc2n[nH]cc21 (centres unmarked)" value="> 250 °C"
compound="CCCC1=C(C#N)C(c2ccccc2Cl)c2c(n[nH]c2C2CCCC2)N1 (centres unmarked)" value="> 270 °C"

Attention now turns to another entry.
Identify the reported melting point for the following entry. CCOC(=O)C1=C(C(F)(F)F)Nc2n[nH]cc2C1c1ccsc1 (centres unmarked)
140 to 145 °C

* * *

Form field: melting point (one value per entry).
All answers are understood in °C, so give the number only.

Use the examples below as a reference point.
molecule="CCCC1=C(C#N)C(c2cccc3nonc23)c2c[nH]nc2N1 (centres unmarked)" unit_descriptor=°C value=194
molecule="CN1CC=C(C2=C(C#N)C(c3cccc4nonc34)c3c[nH]nc3N2)CC1 (centres unmarked)" unit_descriptor=°C value=218
molecule="CSc1ccccc1C1C(C#N)=C(c2ccccc2)Nc2n[nH]cc21 (centres unmarked)" unit_descriptor=°C value=146

Give the reported value of melting point for this record: N#CC1=C(C2CCCCCC2)Nc2n[nH]cc2C1c1cccc2nonc12 (centres unmarked)
228

Item N#CC1=C(C2CCCCCC2)Nc2n[nH]cc2C1c1cccc(C#N)c1Br (centres unmarked) : provide melting point
252

Quick one: give measured melting point for N#CC1=C(C2CCCCCC2)Nc2n[nH]cc2C1c1ccccc1Cl (centres unmarked)
146

Report melting point, nothing else, for this molecule: COCC1=C(C(=O)OC)C(c2ccccc2OC)c2c[nH]nc2N1 (centres unmarked)
186

Kindly indicate its recorded melting point. Item: CCCC1=C([N+](=O)[O-])C(c2ccccc2OC)c2c[nH]nc2N1 (centres unmarked)
223

Please supply the value of reported melting point for the item CCCC1=C(C#N)C(c2cccc3nsnc23)c2c[nH]nc2N1 (centres unmarked)
195

Tell me its melting point given CC(=O)CC1=C(C#N)C(c2cccc(C#N)c2Br)c2c[nH]nc2N1 (centres unmarked) as the entry.
230

# return recorded melting point for entry N#CC1=C(C2CCCNC2)Nc2n[nH]cc2C1c1cccc(C#N)c1Br.O=C(O)C(F)(F)F (centres unmarked)
225

Indicate the recorded melting point value for this molecule: CCCCC1=C([N+](=O)[O-])C(c2cccc(Cl)c2Cl)c2c[nH]nc2N1 (centres unmarked)
220

# return recorded melting point for entry COc1ccccc1C1=C(C#N)C(c2ccccc2[N+](=O)[O-])c2c[nH]nc2N1 (centres unmarked)
207

Give a short answer stating reported melting point for CCCC1=C(C(=O)OCC)C(c2cccc3c2OCCC3)c2c[nH]nc2N1 (centres unmarked) [Example 73] .
208

Numbers sourced from patent US6977262B2.
